# measured_on: A*3002 (Homo sapiens, UniProt P04439, D101N/D140H/D185E/E176R/F33S/G80R/H175R/K168Q/Q94H/R138E/R41S/V100E)
# Sequence (P04439 whole entry, looked up, the tested form may be a part, stated change not applied): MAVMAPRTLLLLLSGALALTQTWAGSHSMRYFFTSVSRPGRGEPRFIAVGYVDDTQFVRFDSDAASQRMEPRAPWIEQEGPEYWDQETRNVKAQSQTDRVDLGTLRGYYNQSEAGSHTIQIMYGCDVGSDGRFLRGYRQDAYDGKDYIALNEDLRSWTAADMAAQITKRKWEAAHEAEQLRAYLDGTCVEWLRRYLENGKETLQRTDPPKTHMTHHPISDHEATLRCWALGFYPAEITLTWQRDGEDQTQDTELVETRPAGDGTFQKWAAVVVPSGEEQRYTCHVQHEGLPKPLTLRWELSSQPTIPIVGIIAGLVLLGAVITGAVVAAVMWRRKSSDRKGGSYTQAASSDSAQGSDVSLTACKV
# experiment_summary: biochemical
# Assay type: binding
No end group written: not given here.
measured_metric: IC50 (nM)

INSERT INTO assay_data (sequence_content, measured_metric, result_unit, value_observed) VALUES
  ('STDAALYWY [Peptide 1593.02]', 'IC50', 'nM', 68),
  ('LSQMVQWAY [Peptide 1580.03]', 'IC50', 'nM', 1.8),
  ('QTKGLGISY [Peptide 9015.0031]', 'IC50', 'nM', 715),
  ('EISNYTDIIY [Peptide 9015.0158]', 'IC50', 'nM', 2900),
  ('VTIEWRLRRY [Peptide 9018.0015]', 'IC50', 'nM', 3.5),
  ('WKSLVKHHMY [Peptide 9015.0177]', 'IC50', 'nM', 148),
  ('LYDQLIHMYY [Peptide 9018.0031]', 'IC50', 'nM', 38),
  ('VSDRANGWFY [Peptide 9018.0012]', 'IC50', 'nM', 18),
  ('KQNPDIVIY [Peptide 1595.10]', 'IC50', 'nM', 7.4),
  ('ETWETWWMDY [Peptide 9015.0168]', 'IC50', 'nM', 601),
  ('LMWKFDSSL [Peptide 1605.16]', 'IC50', 'nM', 348),
  ('ITDDSEIAY [Peptide 1593.04]', 'IC50', 'nM', 3100),
  ('HMDRELHPEY [Peptide 9018.0005]', 'IC50', 'nM', 3.6),
  ('LADQLIHMHY [Peptide 9015.0186]', 'IC50', 'nM', 817);

###

Listed next: entries and their corresponding IC50.
# measured_on: DRB1*1501 (Homo sapiens, UniProt P01903+P01911)
# experiment_summary: biochemical
# Format: binding
measured_metric: IC50

INSERT INTO measurements (molecule, value_observed) VALUES
  ('CC[C@H](C)[C@H](NC(=O)[C@H](CC(=O)O)NC(=O)[C@H](Cc1c[nH]cn1)NC(=O)[C@@H](NC(=O)[C@@H](NC(=O)[C@@H](NC(=O)[C@H](CCC(N)=O)NC(=O)[C@H](CC(C)C)NC(=O)[C@H](CCC(=O)O)NC(=O)[C@@H](NC(=O)[C@H](CS)NC(=O)[C@@H](N)CC(C)C)[C@@H](C)O)[C@@H](C)O)[C@@H](C)O)[C@@H](C)CC)C(=O)N[C@H](C(=O)N[C@@H](CC(C)C)C(=O)N[C@@H](CCC(=O)O)C(=O)O)[C@@H](C)CC [Peptide 1543.24]', '> 20 µM'),
  ('CSCC[C@H](NC(=O)[C@H](Cc1ccc(O)cc1)NC(=O)[C@H](Cc1ccc(O)cc1)NC(=O)[C@@H](NC(=O)[C@H](CO)NC(=O)[C@H](CC(=O)O)NC(=O)[C@H](Cc1c[nH]c2ccccc12)NC(=O)[C@H](C)NC(=O)[C@@H](N)C(C)C)C(C)C)C(=O)N[C@H](C(=O)N[C@@H](CC(=O)O)C(=O)N[C@@H](C)C(=O)NCC(=O)N[C@H](C(=O)N[C@@H](Cc1c[nH]c2ccccc12)C(=O)O)[C@@H](C)O)[C@@H](C)O [Peptide 1601.10]', '> 20 µM'),
  ('CC(C)C[C@H](NC(=O)[C@H](CCC(N)=O)NC(=O)[C@H](CC(=O)O)NC(=O)[C@H](CCC(=O)O)NC(=O)[C@H](CO)NC(=O)[C@H](CC(C)C)NC(=O)[C@@H]1CCCN1C(=O)[C@@H](NC(=O)[C@@H](N)[C@@H](C)O)C(C)C)C(=O)N[C@@H](CC(C)C)C(=O)N[C@@H](Cc1ccc(O)cc1)C(=O)N[C@@H](CC(C)C)C(=O)N1CCC[C@H]1C(=O)N[C@@H](Cc1ccccc1)C(=O)N[C@@H](CCCNC(=N)N)C(=O)O [Peptide 68.0147]', '> 20 µM');

###

# measured_on: DRB1*0301 (Homo sapiens, UniProt P01903+P01911, A100K/A102G/A103R/A169T/F55Y/I96L/K41T/L162R/M171V/P40S/Q125H/Q178H/Q39Y/R42S/S66N/T106N/T262R/W38E/Y61H)
# Sequence (P01903 26-254 limits assumed, other chains not shown): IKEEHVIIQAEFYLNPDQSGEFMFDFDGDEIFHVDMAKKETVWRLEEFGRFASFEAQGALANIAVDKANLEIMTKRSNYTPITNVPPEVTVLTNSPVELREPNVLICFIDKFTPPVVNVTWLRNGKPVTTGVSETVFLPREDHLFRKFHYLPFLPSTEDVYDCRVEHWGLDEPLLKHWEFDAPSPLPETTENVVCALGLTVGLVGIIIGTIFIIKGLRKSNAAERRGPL
# experiment_summary: biochemical
# Format: binding
pIC50: −log10 of the molar value. No end group written: not given here.
measured_metric: pIC50

INSERT INTO assay_data (sequence_content, inequality_symbol, value_observed) VALUES
  ('EDLRTLQQLFLSTLS [Peptide 1543.21]', '=', 5.17),
  ('QMFLGTVKIPPTVQI [Peptide 89.0188]', '=', 6.80),
  ('TTPIIHKLGDRNSLK [Peptide 1601.17]', '=', 6.30),
  ('EYVLDLYPEPTDLYC [Peptide 1543.12]', '=', 6.12),
  ('IIHLKGDANILKCLR [Peptide 90.0197]', '=', 7.59),
  ('RETIEKLLSKLLCVS [Peptide 89.0006]', '=', 4.89),
  ('HWKLIRMECAIMYTA [Peptide 90.0021]', '=', 7.09),
  ('GLYYWCDGEKIYFVK [Peptide 90.0226]', '=', 6.36),
  ('NTTPIIHLKGDKNSL [Peptide 1601.37]', '=', 5.13),
  ('VDFIVNDNDYLTQAE [Peptide 90.0031]', '=', 7.38),
  ('VDFIDTQLSICEQAE [Peptide 89.0078]', '=', 5.42),
  ('DRGVLILLLIRFKCG [Peptide 89.0099]', '=', 6.33),
  ('EVQIALESLSTTIYN [Peptide 90.0231]', '=', 6.15),
  ('RLTVAKLMSNLLSIP [Peptide 89.0065]', '=', 5.38),
  ('NCNSNTTPIVHLKGD [Peptide 1601.08]', '<', 4.70),
  ('KWGVLILALLRYKCG [Peptide 89.0027]', '<', 4.70),
  ('WKLIRMECAIMYTAR [Peptide 90.0245]', '=', 6.69),
  ('ENSIQADTEAARALF [Peptide 90.0078]', '=', 6.21),
  ('YFKYFKEDAAKYSKT [Peptide 90.0205]', '=', 6.32),
  ('IHFLQGAIISFVNSN [Peptide 89.0089]', '<', 4.70),
  ('QQTVCREGVKRRLIL [Peptide 90.0129]', '=', 6.15),
  ('NGWFYVEAVIDRQTG [Peptide 90.0062]', '=', 6.62),
  ('VMAIFGVNPTVAEGF [Peptide 89.0080]', '=', 6.16),
  ('ISEVMGDTPEWIQRL [Peptide 90.0052]', '=', 7.26);

###

Quick reference for pIC50 among some sequences
# measured_on: A*0206 (Homo sapiens, UniProt P04439, D140Y/D185E/D98H/E176V/E277Q/F33Y/G131W/G231S/I119V/I121R/I166T/I218V/L300P/L318F/N151K/N90K/P208A/P217A/Q86G/Q94H/R138H/R169H/T345S)
# experiment_summary: biochemical
# Assay type: binding
pIC50: −log10 of the molar value. No end group written: not given here.
measured_metric: pIC50

INSERT INTO measurements (sequence_content, inequality_symbol, value_observed) VALUES
  ('ILYAHIQCL [Peptide 1578.08]', '=', 6.38),
  ('FQGSVISFV [Peptide 1578.38]', '=', 7.89),
  ('RMLQQLLFV [Peptide 1525.16]', '=', 7.85),
  ('VLAEAMSHT [Peptide 1539.06]', '=', 6.01),
  ('TLNNSGSYT [Peptide 9013.0065]', '<', 4.70),
  ('TLELFIPNI [Peptide 9013.0060]', '=', 7.08),
  ('FLQGAIISFV [Peptide 1578.27]', '=', 7.16),
  ('LQLSNDNRTLV [Peptide 9013.0307]', '=', 7.00),
  ('YTNWGEIYI [Peptide 1578.49]', '=', 6.15),
  ('KTITVSAEV [Peptide 9013.0083]', '=', 7.10),
  ('TLQDVSLEV [Peptide 1578.45]', '=', 5.68),
  ('EVLLLVHNV [Peptide 9013.0021]', '=', 6.97),
  ('FQQSTQELFV [Peptide 9013.0178]', '=', 7.22),
  ('YTNWSEIYI [Peptide 1578.56]', '=', 6.67),
  ('TLVTTITVYA [Peptide 9013.0193]', '=', 5.76),
  ('LQGSVICFV [Peptide 1578.06]', '=', 7.28),
  ('EVQNTTYLWWV [Peptide 9013.0326]', '<', 4.70),
  ('SLYTHLQCL [Peptide 1578.20]', '=', 6.27);
